Data provenance is patent US11214563B2.

# PROTOCOL: Liver microsomal stability (extraction ratio)
# Format: in vitro ADME
# CONDITION SUMMARY: test compound 1 μM; 0.5 mg/mL liver microsomes; species not stated in Table 4 (method: mouse, rat, and human)
OBSERVED PROPERTY: Extraction Ratio @ 1 μM
Field format: numeric only.

Sample answers from the record:
• O=C(Cn1ncc2ncc(-c3ccc(F)c(OC(F)F)c3)nc21)N1CC(F)C1 = 0.46
• CN(C)C(=O)Cn1ncc2ncc(-c3ccc(Cl)c(C(F)F)c3)nc21 = 0.54
• CN(C)C(=O)Cn1ncc2ncc(-c3ccc(F)c(C(F)F)c3)nc21 = 0.41

Next compound, please.
Qu. Field request: Extraction Ratio @ 1 μM | item: O=C(Cn1ncc2ncc(-c3ccc(F)c(OC(F)F)c3)nc21)N1CCC1
Ans. 0.45

* * *

Item-by-item account of pIC50
# EXPERIMENTAL TARGET: human GluN1/GluN2B NMDA receptors (Homo sapiens (Human))
# PROTOCOL: Cell-based calcium flux (FLIPR) assay on cloned human NR1/NR2B ion channels expressed in mammalian cells
# CONDITION SUMMARY: standard assay, glutamate ~EC40, 10 μM glycine
The value called pIC50 is obtained by taking minus log10 of the concentration in mol/L.

Sample answers from the record:
* CN(C)C(=O)Cn1ncc2ncc(-c3ccc(Cl)cc3F)nc21 [Example 48] | 5.55
* Cc1cc(-c2cnc3cnn(CC(=O)N(C)C)c3n2)ccc1Cl [Example 8] | 6.87
* Cc1nnc(Cn2ncc3ncc(-c4ccc(F)c(C(F)F)c4)nc32)s1 [Example 39] | 6.79
* Cc1cc(-c2cnc3cnn(CC(=O)N(C)C)c3n2)ccc1Cl [Example 7] | 6.93
* N#Cc1cncc(Cn2nc(F)c3ncc(-c4ccc(F)c(C(F)F)c4)nc32)c1 [Example 46] | 6.15
* Fc1ccc(-c2cnc3cnn(Cc4cncc(Cl)c4)c3n2)cc1OC(F)F [Example 47] | 6.55

Qu. Field request: pIC50 | item: COc1ccc(-c2cnc3cnn(CC(=O)N(C)C)c3n2)cc1Cl [Example 9]
Ans. 6.23

Qu. Field request: pIC50 | item: CN(C)C(=O)Cn1ncc2ncc(-c3ccc(Cl)c(C(F)(F)F)c3)nc21 [Example 15]
Ans. 6.57

Qu. Field request: pIC50 | item: O=C(Cn1ncc2ncc(-c3ccc(F)c(OC(F)F)c3)nc21)N1CCC1 [Example 28]
Ans. 7.23

* * *

# EXPERIMENTAL TARGET: human GluN1/GluN2B NMDA receptors (Homo sapiens (Human), UniProt Q05586+Q13224)
# Sequence (Q13224 27-1484, other chains not shown): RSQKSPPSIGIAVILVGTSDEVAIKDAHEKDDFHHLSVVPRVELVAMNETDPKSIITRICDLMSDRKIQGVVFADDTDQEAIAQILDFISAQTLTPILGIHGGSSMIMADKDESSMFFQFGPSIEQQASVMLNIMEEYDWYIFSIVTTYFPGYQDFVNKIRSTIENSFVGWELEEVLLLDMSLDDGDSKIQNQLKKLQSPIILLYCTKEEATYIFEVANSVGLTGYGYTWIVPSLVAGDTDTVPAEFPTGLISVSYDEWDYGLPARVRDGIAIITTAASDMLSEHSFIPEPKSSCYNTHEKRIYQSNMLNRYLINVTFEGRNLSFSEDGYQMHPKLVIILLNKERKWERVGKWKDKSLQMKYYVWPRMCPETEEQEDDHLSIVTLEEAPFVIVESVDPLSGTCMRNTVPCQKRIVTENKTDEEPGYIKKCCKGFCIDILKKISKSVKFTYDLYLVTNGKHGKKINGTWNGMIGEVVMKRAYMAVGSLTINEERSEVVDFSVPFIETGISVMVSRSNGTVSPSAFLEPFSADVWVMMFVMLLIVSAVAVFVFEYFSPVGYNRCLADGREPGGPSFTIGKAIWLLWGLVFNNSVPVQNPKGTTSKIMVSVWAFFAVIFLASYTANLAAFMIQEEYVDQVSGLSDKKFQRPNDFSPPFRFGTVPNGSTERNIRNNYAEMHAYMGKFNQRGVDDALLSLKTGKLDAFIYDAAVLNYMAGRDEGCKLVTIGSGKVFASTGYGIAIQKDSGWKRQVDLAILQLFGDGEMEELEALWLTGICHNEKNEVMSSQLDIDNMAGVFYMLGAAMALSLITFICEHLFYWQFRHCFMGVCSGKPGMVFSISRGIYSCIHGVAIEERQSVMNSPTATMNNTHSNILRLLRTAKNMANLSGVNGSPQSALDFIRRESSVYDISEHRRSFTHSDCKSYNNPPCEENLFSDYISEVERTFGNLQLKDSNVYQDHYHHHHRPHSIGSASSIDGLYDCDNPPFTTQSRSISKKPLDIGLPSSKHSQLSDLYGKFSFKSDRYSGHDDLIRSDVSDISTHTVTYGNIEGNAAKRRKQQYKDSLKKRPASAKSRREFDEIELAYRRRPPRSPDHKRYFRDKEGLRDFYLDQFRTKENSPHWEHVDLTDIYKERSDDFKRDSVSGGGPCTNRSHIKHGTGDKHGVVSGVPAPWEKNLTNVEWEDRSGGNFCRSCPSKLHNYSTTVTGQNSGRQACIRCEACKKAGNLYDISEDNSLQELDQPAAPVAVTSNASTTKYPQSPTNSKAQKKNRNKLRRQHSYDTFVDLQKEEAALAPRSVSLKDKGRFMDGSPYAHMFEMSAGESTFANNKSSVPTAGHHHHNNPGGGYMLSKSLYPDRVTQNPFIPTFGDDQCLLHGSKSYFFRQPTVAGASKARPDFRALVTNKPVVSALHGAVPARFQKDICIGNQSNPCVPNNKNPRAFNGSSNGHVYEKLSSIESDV
# PROTOCOL: Cell-based calcium flux (FLIPR) assay on cloned human NR1/NR2B ion channels expressed in mammalian cells
# CONDITION SUMMARY: standard assay, glutamate ~EC40, 10 μM glycine
OBSERVED PROPERTY: log10 IC50 (log10 of the value in µM)
Lab note - IC50 converted to log10 from values in µM.

• O=C(Cn1ncc2ncc(-c3ccc(F)c(C(F)F)c3)nc21)N1CC(F)C1 = -1.43

Qu. Please tell me: log10 IC50 of O=C(Cn1ncc2ncc(-c3ccc(Cl)c(OC(F)F)c3)nc21)C1CC1 , system human GluN1/GluN2B NMDA receptors (Homo sapiens (Human), UniProt Q05586+Q13224)?
Ans. -1.09

Qu. Please tell me: log10 IC50 of CC1CN(C(=O)Cn2ncc3ncc(-c4ccc(F)c(C(F)F)c4)nc32)C1 , system human GluN1/GluN2B NMDA receptors (Homo sapiens (Human), UniProt Q05586+Q13224)?
Ans. -0.91

Qu. Please tell me: log10 IC50 of CN(C)C(=O)Cn1nc(F)c2ncc(-c3ccc(F)c(C(F)F)c3)nc21 , system human GluN1/GluN2B NMDA receptors (Homo sapiens (Human), UniProt Q05586+Q13224)?
Ans. -1.23

Qu. Please tell me: log10 IC50 of Cc1c(F)cc(-c2cnc3cnn(CC(=O)N(C)C)c3n2)cc1F , system human GluN1/GluN2B NMDA receptors (Homo sapiens (Human), UniProt Q05586+Q13224)?
Ans. -0.04

Qu. Please tell me: log10 IC50 of Cc1ccc(-c2cnc3cnn(CC(=O)N(C)C)c3n2)cc1F , system human GluN1/GluN2B NMDA receptors (Homo sapiens (Human), UniProt Q05586+Q13224)?
Ans. -0.04

Qu. Please tell me: log10 IC50 of CC(F)(F)c1cc(-c2cnc3cnn(CC(=O)N4CCC4)c3n2)ccc1F , system human GluN1/GluN2B NMDA receptors (Homo sapiens (Human), UniProt Q05586+Q13224)?
Ans. -0.90

Qu. Please tell me: log10 IC50 of Cc1cccc(-c2cnc3cnn(CC(=O)N(C)C)c3n2)c1 , system human GluN1/GluN2B NMDA receptors (Homo sapiens (Human), UniProt Q05586+Q13224)?
Ans. -0.39

Qu. Please tell me: log10 IC50 of CCC(=O)Cn1ncc2ncc(-c3ccc(F)c(C(F)F)c3)nc21 , system human GluN1/GluN2B NMDA receptors (Homo sapiens (Human), UniProt Q05586+Q13224)?
Ans. -1.66

Qu. Please tell me: log10 IC50 of N#Cc1cncc(Cn2ncc3ncc(-c4ccc(F)c(C(F)F)c4)nc32)c1 , system human GluN1/GluN2B NMDA receptors (Homo sapiens (Human), UniProt Q05586+Q13224)?
Ans. -0.55

Qu. Please tell me: log10 IC50 of Cc1nnc(Cn2ncc3ncc(-c4ccc(F)c(C(F)F)c4)nc32)o1 , system human GluN1/GluN2B NMDA receptors (Homo sapiens (Human), UniProt Q05586+Q13224)?
Ans. -0.80

Qu. Please tell me: log10 IC50 of CN(C)C(=O)Cn1ncc2ncc(-c3ccc(Cl)c(OC(F)F)c3)nc21 , system human GluN1/GluN2B NMDA receptors (Homo sapiens (Human), UniProt Q05586+Q13224)?
Ans. -1.19

* * *

# EXPERIMENTAL TARGET: human GluN1/GluN2B NMDA receptors (Homo sapiens (Human), UniProt Q13224)
# Sequence (Q13224 27-1484, other chains not shown): as above
# PROTOCOL: Cell-based calcium flux (FLIPR) assay on cloned human NR1/NR2B ion channels expressed in mammalian cells
# CONDITION SUMMARY: standard assay, glutamate ~EC40, 10 μM glycine
OBSERVED PROPERTY: pIC50
The value called pIC50 is obtained by taking minus log10 of the concentration in mol/L.

Sample answers from the record:
- CC1CN(C(=O)Cn2nc(F)c3ncc(-c4ccc(F)c(C(F)F)c4)nc32)C1: 6.71
- CN(C)C(=O)Cn1ncc2ncc(-c3ccc(OC(F)F)c(F)c3)nc21: 6.07
- O=C(Cn1nc(F)c2ncc(-c3ccc(F)c(C(F)F)c3)nc21)N1CC(F)C1: 7.11

Next compound, please.
Qu. Please tell me: pIC50 of COc1cncc(Cn2ncc3ncc(-c4ccc(F)c(OC(F)F)c4)nc32)c1 , system human GluN1/GluN2B NMDA receptors (Homo sapiens (Human), UniProt Q13224)?
Ans. 5.42

* * *

Item-by-item account of IC50
# EXPERIMENTAL TARGET: human GluN1/GluN2B NMDA receptors (Homo sapiens (Human))
# PROTOCOL: Cell-based calcium flux (FLIPR) assay on cloned human NR1/NR2B ion channels expressed in mammalian cells
# CONDITION SUMMARY: standard assay, glutamate ~EC40, 10 μM glycine
// return numeric value only (unit: nM, not printed)

* CC(F)(F)c1cc(-c2cnc3cnn(CC(=O)N4CCOCC4)c3n2)ccc1Cl | 1060
* CN(C)C(=O)Cn1ncc2ncc(-c3ccc(OC(F)(F)F)cc3)nc21 | 2740
* CN(C)C(=O)Cn1ncc2ncc(-c3ccc(OC(F)(F)F)c(Cl)c3)nc21 | 1040
* CN(C)C(=O)Cn1ncc2ncc(-c3ccc(F)c(C(C)(F)F)c3)nc21 | 146
* Fc1cncc(Cn2ncc3ncc(-c4ccc(F)c(C(F)F)c4)nc32)c1 | 79

Qu. Field request: IC50 | item: Fc1ccc(-c2cnc3cnn(Cc4cncc(Cl)c4)c3n2)cc1C(F)F
Ans. 250

Qu. Field request: IC50 | item: CN(C)C(=O)Cn1ncc2ncc(-c3ccc(F)c(F)c3F)nc21
Ans. 962

Qu. Field request: IC50 | item: CC(F)(F)c1cc(-c2cnc3cnn(CC(=O)N4CCC4)c3n2)ccc1Cl
Ans. 140

Qu. Field request: IC50 | item: CN(C)C(=O)Cn1ncc2ncc(-c3ccc(Cl)c(C(C)(F)F)c3)nc21
Ans. 149
